- system_tested: T1, CYSLTR2 N-terminal disordered region peptide, MERKFMSLQPSISVSEMEPNGTFSNNNSRNCTIENFKREFFP (biotin label)
- T1 construct: also called CysLT2; CysLT2r
- T1 peptide: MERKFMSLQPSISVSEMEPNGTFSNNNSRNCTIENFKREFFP
- experiment_summary: modified sandwich ELISA, fluorescence grade by the table's key; note: test concentration or dose not given here
# Lookup of reported fluorescent signal keyed by entry

Answered cases to consult:
engineered scaffold protein S005 (designed binder, Derived from MHC II; also called scaffold v1.1; v1.1) MIKEEHVIIQAEFYLNPDQSGEFMFDFDGDEIFHVDMAKKETVWRLEEFGRFASFEAQGALANIAVDKANLEIMTKRSNYTPMGDTRPRFLWQLKFECHFFNGTERVRLLERCIYNQEESVRFDSDVGEYRAVTELGRPDAEYWNSQKDLLEQRRAAVDTYCRHNYGVGESFTVQGGSHHHHHHLE :: 100000 to 250000 fluorescentsignal
engineered scaffold protein S077 (designed binder) KPVSKMRMATPLLMQALPMASGGGGSGGGGDTRPRFLWQLKFECHFFNGTERVRLLERCIYNQEESVRFDSDVGEYRAVTELGRPDAEYWNSQKDLLEQRRAAVDTYCRHNYGVGESFTVQRRSGGGIKEEHVIIQAEFYLNPDQSGEFMFDFDGDEIFHVDMAKKETVWRLEEFGRFASFEAQGALANIAVDKANLEIMTKRSNYTGGSHHHHHHLE :: 100000 to 250000 fluorescentsignal

Consider the additional binder presented here.
Request the reported fluorescent signal associated with engineered scaffold protein S078 (designed binder) GDTRPRFLWQLKFECHFFNGTERVRLLERCIYNQEESVRFDSDVGEYRAVTELGRPDAEYWNSQKDLLEQRRAAVDTYCRHNYGVGESFTVQRRSGGGIKEEHVIIQAEFYLNPDQSGEFMFDFDGDEIFHVDMAKKETVWRLEEFGRFASFEAQGALANIAVDKANLEIMTKRSNYTGGSHHHHHHLE
50000 to 100000 fluorescentsignal

src = patent US20250387450A1
